Attribution: ChEMBL document CHEMBL3885861

# Organism: Rattus norvegicus
# Test name: Open TG-GATES - Regimen: Single
# Type: toxicity, organism-based, Sprague-Dawley
# Parameters: regimen Single, gender Male, age 6 weeks
# Study conditions: in vivo, po, 300 mg/kg, 24 h, tissue Plasma, route gavage, dose level Middle
Readout name: K (meq/L)
State just the number; it will be interpreted in meq/L.

Worked set:
Compound: CN/C(=N/CCSCc1nc[nH]c1C)NC#N [CIMETIDINE]
K, meq/L: 3.9

Compound: O=C(OC[C@H]1O[C@@H](OC(=O)c2cc(O)c(O)c(OC(=O)c3cc(O)c(O)c(O)c3)c2)[C@H](OC(=O)c2cc(O)c(O)c(OC(=O)c3cc(O)c(O)c(O)c3)c2)[C@@H](OC(=O)c2cc(O)c(O)c(OC(=O)c3cc(O)c(O)c(O)c3)c2)[C@@H]1OC(=O)c1cc(O)c(O)c(OC(=O)c2cc(O)c(O)c(O)c2)c1)c1cc(O)c(O)c(OC(=O)c2cc(O)c(O)c(O)c2)c1 [TANNIC ACID]
K, meq/L: 4.4

Compound: CNC(=C[N+](=O)[O-])NCCSCc1ccc(CN(C)C)o1 [RANITIDINE]
K, meq/L: 4

Compound: COC(=O)C1=C(C)NC(C)=C(C(=O)OC)C1c1ccccc1[N+](=O)[O-] [NIFEDIPINE]
K, meq/L: 3.9

Requested read-out: K. Entry: Cc1nnc2n1-c1ccc(Cl)cc1C(c1ccccc1Cl)=NC2 [TRIAZOLAM] 4.5

###

# Organism: Rattus norvegicus
# Test name: Open TG-GATES - Regimen: Single
# Format: toxicity, organism-based, Sprague-Dawley
# Design: regimen Single, gender Male, age 6 weeks
# Study conditions: in vivo, po, 100 mg/kg, 9 h, tissue Plasma, route gavage, dose level Low
Readout name: PL (mg/dL)
State just the number; it will be interpreted in mg/dL.

Worked set:
Molecule: CNC(=C[N+](=O)[O-])NCCSCc1ccc(CN(C)C)o1 [RANITIDINE]
Readout name: PL
Recorded value: 132.6
--
Molecule: O=C(OC[C@H]1O[C@@H](OC(=O)c2cc(O)c(O)c(OC(=O)c3cc(O)c(O)c(O)c3)c2)[C@H](OC(=O)c2cc(O)c(O)c(OC(=O)c3cc(O)c(O)c(O)c3)c2)[C@@H](OC(=O)c2cc(O)c(O)c(OC(=O)c3cc(O)c(O)c(O)c3)c2)[C@@H]1OC(=O)c1cc(O)c(O)c(OC(=O)c2cc(O)c(O)c(O)c2)c1)c1cc(O)c(O)c(OC(=O)c2cc(O)c(O)c(O)c2)c1 [TANNIC ACID]
Readout name: PL
Recorded value: 135.2
--
Molecule: CN/C(=N/CCSCc1nc[nH]c1C)NC#N [CIMETIDINE]
Readout name: PL
Recorded value: 135

Requested read-out: PL. Entry: Cc1nnc2n1-c1ccc(Cl)cc1C(c1ccccc1Cl)=NC2 [TRIAZOLAM] 150.6

Next: COC(=O)C1=C(C)NC(C)=C(C(=O)OC)C1c1ccccc1[N+](=O)[O-] [NIFEDIPINE] 152

###

# Organism: Rattus norvegicus
# Test name: Open TG-GATES - Regimen: Daily Repeat
# Format: toxicity, organism-based, Sprague-Dawley
# Set-up: regimen Daily Repeat, gender Male, age 6 weeks
# Study conditions: in vivo, po, 300 mg/kg, […], tissue Blood, route gavage, dose level Middle, time 28 day
Each record here notes measured Fbg.
State just the number; it will be interpreted in mg/dL.

Worked set:
Smiles representation: CN/C(=N/CCSCc1nc[nH]c1C)NC#N
Units: mg/dL
Fbg: 225.2
--
Smiles representation: COC(=O)C1=C(C)NC(C)=C(C(=O)OC)C1c1ccccc1[N+](=O)[O-]
Units: mg/dL
Fbg: 277
--
Smiles representation: CCOc1ccc(NC(C)=O)cc1
Units: mg/dL
Fbg: 262.4
--
Smiles representation: CNC(=C[N+](=O)[O-])NCCSCc1ccc(CN(C)C)o1
Units: mg/dL
Fbg: 216.2
--
Smiles representation: Cc1nnc2n1-c1ccc(Cl)cc1C(c1ccccc1Cl)=NC2
Units: mg/dL
Fbg: 262.4

Continue with the next compound.
Requested read-out: Fbg. Entry: O=C(OC[C@H]1O[C@@H](OC(=O)c2cc(O)c(O)c(OC(=O)c3cc(O)c(O)c(O)c3)c2)[C@H](OC(=O)c2cc(O)c(O)c(OC(=O)c3cc(O)c(O)c(O)c3)c2)[C@@H](OC(=O)c2cc(O)c(O)c(OC(=O)c3cc(O)c(O)c(O)c3)c2)[C@@H]1OC(=O)c1cc(O)c(O)c(OC(=O)c2cc(O)c(O)c(O)c2)c1)c1cc(O)c(O)c(OC(=O)c2cc(O)c(O)c(O)c2)c1 232.8
